- ASSAY TARGET: solubilized endothelin converting enzyme (P3 from rat lung)
- TEST NAME: ECE Inhibitor Screening Assay
- ASSAY SETUP: Big ET substrate, 30 minutes at 37° C., HPLC of ET-1 and Big ET, read-out: Inhibition of Endothelin Converting Enzyme IC50
pIC50: −log10 of the molar value.
MEASUREMENT KIND: pIC50

COMPOUND	pIC50
CCC(C)C(NC(=O)C(CC1CCCCC1)NC(=O)CCC(=O)O)C(=O)N[C@@H](Cc1ccc2ccccc2c1)[C@@H](O)[C@@H](O)CC(C)C (stereo partly drawn) [Example 48]	8.15
CCOC(=O)CC(O)C(CC(C)C)NC(=O)C(NC(=O)[C@@H](NC(=O)OC(C)(C)C)C(C)(C)C)C(C)CC (stereo partly drawn) [Example 1]	7.30
CCC(C)C(NC(=O)OC(C)(C)C)C(=O)NC(C(=O)NC(CC(C)C)C(O)CC(=O)NCCCCCO)C(C)CC (stereo not drawn) [Example 7]	7.17
CC[C@H](C)[C@H](NC(C)=O)C(=O)N[C@H](C(=O)N[C@@H](CC1CCCCC1)[C@@H](O)[C@@H](O)CC(C)C)[C@@H](C)CC [Example 27]	7.54

[P] CCC(C)C(NC(=O)OC(C)(C)C)C(=O)NC(C(=O)NC(CC(C)C)C(O)CC(=O)NCCCCO)C(C)CC (stereo not drawn) [Example 6]
[Q] CCC(C)C(NC(=O)OC(C)(C)C)C(=O)NC(C(=O)NC(CC(C)C)C(O)CC(=O)NCCc1ccccn1)C(C)CC (stereo not drawn) [Example 47]
Q: Of P and Q , whose reported pIC50 is numerically smaller? # answer = label of selected item
Result: P

---

- ASSAY TARGET: solubilized endothelin converting enzyme (P3 from rat lung)
- TEST NAME: ECE Inhibitor Screening Assay
- ASSAY SETUP: Big ET substrate, 30 minutes at 37° C., HPLC of ET-1 and Big ET, read-out: Inhibition of Endothelin Converting Enzyme IC50
pIC50: −log10 of the molar value. Counter-ions that a name gives are not always drawn.
MEASUREMENT KIND: pIC50

Study these solved cases before continuing.
COMPOUND	pIC50
CCC(C)C(NC(=O)C(CC(=O)OCc1ccccc1)NC(=O)OC(C)(C)C)C(=O)NC(C(=O)N[C@@H](Cc1ccc2ccccc2c1)[C@@H](O)[C@@H](O)CC(C)C)C(C)CC (stereo partly drawn)	8.40
CCC(C)C(NC(=O)OC(C)(C)C)C(=O)NC(C(=O)NC(CC(C)C)C(O)CC(=O)NCC1CCCCC1)C(C)CC (stereo not drawn)	7.77
CC[C@H](C)[C@H](NC(=O)OC(C)(C)C)C(=O)N[C@H](C(=O)N[C@@H](CC1CCCCC1)[C@@H](O)[C@@H](O)CC(C)C)[C@@H](C)CC	8.15
CCC(C)C(NC(=O)C(CC1CCCCC1)NC(=O)OC(C)(C)C)C(=O)NC(CC(C)C)C(O)CC(=O)NCCN(C)C (stereo not drawn)	7.74
CCC(C)C(NC(=O)C(CC1CCCCC1)NC(=O)OC(C)(C)C)C(=O)NC(CC(C)C)C(O)CC(=O)NCCN1CCOCC1 (stereo not drawn)	7.80

[1] CCC(C)C(NC(=O)OC(C)(C)C)C(=O)NC(C(=O)NC(CC(C)C)C(O)CC(=O)NCC(C)C)C(C)CC (stereo not drawn)
[2] CC[C@H](C)[C@H](NC(=O)CCC(=O)O)C(=O)N[C@H](C(=O)N[C@@H](CC1CCCCC1)[C@@H](O)[C@@H](O)CC(C)C)[C@@H](C)CC
[3] CCC(C)C(NC(=O)C(CC1CCCCC1)NC(=O)N1CCOCC1)C(=O)N[C@@H](Cc1ccc2ccccc2c1)[C@@H](O)[C@@H](O)CC(C)C (stereo partly drawn)
[4] CCC(C)C(NC(=O)C(CC(C)(C)C)NC(=O)OC(C)(C)C)C(=O)NC(CC(C)C)C(O)CC(=O)O (stereo not drawn)
Q: Rank items: key pIC50, increasing. Please write the labels in the order that was asked for.
Result: 4, 2, 1, 3
(4: 7.29, 2: 7.77, 1: 8.10, 3: 8.52)

[A] CCC(C)C(NC(=O)C(CC1CCCCC1)NC(=O)OC(C)(C)C)C(=O)NC(CC(C)C)C(O)CC(=O)NCC(C)C (stereo not drawn)
[B] CCC(C)C(NC(=O)C(CC1CCCCC1)NC(=O)N1CCN(C)CC1)C(=O)N[C@@H](Cc1ccc2ccccc2c1)[C@@H](O)[C@@H](O)CC(C)C (stereo partly drawn) [Example 43, Hydrochloride]
[C] CCOC(=O)CCNC(=O)CC(O)C(CC(C)C)NC(=O)C(NC(=O)C(NC(=O)OC(C)(C)C)C(C)CC)C(C)CC (stereo not drawn)
Q: Rank items: key pIC50, increasing. Please write the labels in the order that was asked for.
Result: C, A, B
(C: 7.77, A: 8.02, B: 8.22)
